FYI, the data here is from ChEMBL document CHEMBL3988442.

- Test system: Mycobacterium tuberculosis
- Method summary: Cornell M. t heat shock assay; further: in the data most compounds retested in dose-response had high values
- Format: functional, organism-based
- Parameters: dose or concentration left out as unconfirmed
Among all 69,000 compounds or so, about 950 (1.4%) showed an effect of 50% or more. What follows is part of a selection rich in strong results, with near analogues and random picks from the rest.
Property name: Percent Effect (%)
Could you give me the number in %? Just the number is fine.

Measured Percent Effect of `Cc1noc(C)c1CN1CCc2ncnc(-c3cccnc3)c2CC1.O=C(O)C(F)(F)F.O=C(O)C(F)(F)F` : 12.88

Measured Percent Effect of O=C(Cc1ccsc1)N1C[C@@H]2OCCN(CC3CCCO3)[C@@H]2C1.O=C(O)C(F)(F)F (stereo not given in full) : -30.31

Measured Percent Effect of `Cc1cccc(CN2CCO[C@H]3[C@@H](OCc4ccncc4)CC[C@@H]32)n1.O=C(O)C(F)(F)F.O=C(O)C(F)(F)F.O=C(O)C(F)(F)F` : -9.598

Measured Percent Effect of `Cc1cc(=O)n(CC(=O)NCCC(C)C)c(-c2cccc(Cl)c2)n1` : 9.879

Measured Percent Effect of Nc1nccc(C2CCCN2CCc2ccccc2)n1 (stereo not given) : 10.92

Measured Percent Effect of Cc1nccc(C2CCCCN2Cc2ccccc2)n1 (stereo not given) : -13.8

Measured Percent Effect of COc1ccccc1C(=O)N1CCNCC1C(N)=O.Cl (stereo not given) : 5.705

Measured Percent Effect of `CCOc1ccccc1OCCN(C)Cc1nccn1C` : -26.9

Measured Percent Effect of c1ccc(CCN2CCCC2c2ccnc(Nc3ncccn3)n2)cc1 (stereo not given) : 91.35

Measured Percent Effect of `CN(CCCOc1ccccc1)Cc1nccn1C` : -13.65
